species: Homo sapiens; assay: Selectivity ratio of IC50 for human cathepsin F to IC50 for humanized rabbit cathepsin K
parameterMeasured: Ratio IC50
Answer as a number with no unit attached.

*Q* Which Ratio IC50 is reported for this compound? `CC(C)(F)C[C@H](N[C@@H](c1ccc(-c2ccc([C@H](O)C(F)F)cc2)cc1)C(F)(F)F)C(=O)NC1(C#N)CC1`
*A* 1600

*Q* Which Ratio IC50 is reported for this compound? `Cc1csc(-c2ccc([C@H](N[C@@H](CC(C)(C)F)C(=O)NC3(C#N)CC3)C(F)(F)F)cc2)n1`
*A* 1980

*Q* Which Ratio IC50 is reported for this compound? `CC(C)(F)C[C@H](N[C@@H](c1ccc(-c2ccc([C@@H](O)C(F)F)cc2)cc1)C(F)(F)F)C(=O)NC1(C#N)CC1`
*A* 1460
